experiment: Hemolytic activity in sheep erythrocytes assessed as hemolysis at 256 ug/ml incubated for 1 hr by microplate reader based analysis relative to control; type: toxicity, cell-based, Ovis aries, Erythrocyte; conditions: at 256 µg/mL, read-out: Activity
Mark Not fulfilled for hemolysis at 1 h, 256 ug/ml values under 10%, and Fulfilled for everything at or above.

Record excerpt, results attached:
{"compound": "Cn1c(C2CC(=O)N(c3cccc(Br)c3Cl)C2)nc2ccccc21 (stereo unspecified)", "class-name": "Fulfilled"}
{"compound": "Cc1c(Cl)cccc1N1CC(c2nc3ccccc3n2C)CC1=O (stereo unspecified)", "class-name": "Fulfilled"}

Challenge: Identify whether the reported hemolysis at 1 h, 256 ug/ml of the following compound is 10% or greater: COc1c(Br)cccc1N1CC(c2nc3ccccc3n2C)CC1=O (stereo unspecified)
Response given: Not fulfilled

Challenge: Identify whether the reported hemolysis at 1 h, 256 ug/ml of the following compound is 10% or greater: CCn1c(C2CC(=O)N(c3cccc(Br)c3C)C2)nc2ccccc21 (stereo unspecified)
Response given: Fulfilled

Challenge: Identify whether the reported hemolysis at 1 h, 256 ug/ml of the following compound is 10% or greater: Cn1c(C2CC(=O)N(c3cccc(Cl)c3Cl)C2)nc2ccccc21 (stereo unspecified)
Response given: Not fulfilled

###

assay: Cmax in female Sprague-Dawley rat at 5 mg/kg, iv measured upto 24 hrs by LC-MS analysis; type: ADME, organism-based; conditions: in vivo
assay-endpoint: Cmax (ng/mL)
One number for each entry, in ng/mL.

In the examples that follow, each entry is paired with its recorded Cmax.
{"compound": "Cc1c(CN(C)C(=O)/C=C/c2cnc3c(c2)CCC(=O)N3)oc2ccccc12", "output-unit": "ng/mL", "Cmax": 1810}
{"compound": "Cc1c(Br)cccc1N1CC(c2nc3ccccc3n2C)CC1=O (stereo not drawn)", "output-unit": "ng/mL", "Cmax": 3240}

// switching to the query compound
// field: Cmax; key: COc1c(Br)cccc1N1CC(c2nc3ccccc3n2C)CC1=O (stereo not drawn) ; value = 2720

###

system: Staphylococcus aureus; assay: Antimicrobial activity against […] Staphylococcus aureus ATCC43300 measured after 24 hrs by CLSI protocol based microdilution method; assay type: functional
Could you please report measured MIC for the items listed next?
One number for each entry, in µg/mL.

In the examples that follow, each entry is paired with its recorded MIC.
{"compound": "Cc1c(CN(C)C(=O)/C=C/c2cnc3c(c2)CCC(=O)N3)oc2ccccc12", "output-unit": "µg/mL", "MIC": 0.016}
{"compound": "Cn1c(C2CC(=O)N(c3cccc(Br)c3Cl)C2)nc2ccccc21 (stereo not drawn)", "output-unit": "µg/mL", "MIC": 2}
{"compound": "Cc1c(Cl)cccc1N1CC(c2nc3ccccc3n2C)CC1=O (stereo not drawn)", "output-unit": "µg/mL", "MIC": 2}
{"compound": "Cn1c(C2CC(=O)N(c3cccc(Cl)c3Cl)C2)nc2ccccc21 (stereo not drawn)", "output-unit": "µg/mL", "MIC": 2}
{"compound": "Cc1c(Br)cccc1N1CC(c2nc3ccccc3n2C(C)C)CC1=O (stereo not drawn)", "output-unit": "µg/mL", "MIC": 16}
{"compound": "Cn1c(C2CC(=O)N(c3cccc(Br)c3O)C2)nc2ccccc21 (stereo not drawn)", "output-unit": "µg/mL", "MIC": 16}
{"compound": "Cn1c(C2CC(=O)N(c3cccc(Cl)c3Br)C2)nc2ccccc21 (stereo not drawn)", "output-unit": "µg/mL", "MIC": 16}
{"compound": "Cc1cccc(N2CC(c3nc4ccccc4n3C)CC2=O)c1Cl (stereo not drawn)", "output-unit": "µg/mL", "MIC": 8}

Would you mind listing MIC for each of the following compounds?
1. Cc1c(N2CC(c3nc4ccccc4n3C)CC2=O)cccc1[N+](=O)[O-] (stereo not drawn)
2. Cn1c(C2CC(=O)N(c3cccc(Cl)c3F)C2)nc2ccccc21 (stereo not drawn)
3. Cc1c(N2CC(c3nc4ccccc4n3C)CC2=O)cccc1C(F)(F)F (stereo not drawn)
4. Cc1c(Br)cccc1N1CC(c2nc3ccccc3n2C)CC1=O (stereo not drawn)
5. CCCn1c(C2CC(=O)N(c3cccc(Br)c3C)C2)nc2ccccc21 (stereo not drawn)
6. Cc1cccc(N2CC(c3nc4ccccc4n3C)CC2=O)c1Br (stereo not drawn)
7. COc1cccc(N2CC(c3nc4ccccc4n3C)CC2=O)c1C (stereo not drawn)

Response given:
16
4
4
1
4
32
32

// field: MIC; key: Cn1c(C2CC(=O)N(c3cccc(Br)c3F)C2)nc2ccccc21 (stereo not drawn) ; value = 4

###

Could you please report measured MIC for the items listed next?
system: Staphylococcus aureus; assay: Antimicrobial activity against methicillin-susceptible Staphylococcus aureus ATCC29213 measured after 24 hrs by CLSI protocol based microdilution method; format: functional
Numbers only, in µg/mL.

In the examples that follow, each entry is paired with its recorded MIC.
{"compound": "COc1c(Br)cccc1N1CC(c2nc3ccccc3n2C)CC1=O (stereo unspecified)", "reported": 1}
{"compound": "Cn1c(C2CC(=O)N(c3cccc(Br)c3Cl)C2)nc2ccccc21 (stereo unspecified)", "reported": 2}

// switching to the query compound
// field: MIC; key: Cc1c(O)cccc1N1CC(c2nc3ccccc3n2C)CC1=O (stereo unspecified) ; value = 8

###

assay: Hemolytic activity in sheep erythrocytes assessed as hemolysis at 128 ug/ml incubated for 1 hr by microplate reader based analysis relative to control; assay type: toxicity, cell-based, Ovis aries, Erythrocyte; details: at 128 µg/mL, read-out: Activity
# note: exactly 5% is not below, so it is Not fulfilled; use Fulfilled for hemolysis at 1 h, 128 ug/ml strictly under it

{"molecule": "Cc1c(Cl)cccc1N1CC(c2nc3ccccc3n2C)CC1=O (stereo unspecified)", "class-name": "Not fulfilled"}

API: the following record is the query input.
Challenge: Just wondering, is hemolysis at 1 h, 128 ug/ml of CCn1c(C2CC(=O)N(c3cccc(Br)c3C)C2)nc2ccccc21 (stereo unspecified) below 5%?
Response given: Not fulfilled

###

Could you please report measured MIC for the items listed next?
system: Candida albicans; test: Antimicrobial activity against Candida albicans SC5314 measured after 48 hrs by CLSI protocol based microdilution method; format: functional

{"compound": "Cn1c(CCC(=O)NCCC(=O)NCc2ccccc2)nc2ccccc21", "MIC": "> 32 µg/mL"}

Would you mind listing MIC for each of the following compounds?
1. Cn1c(C2CC(=O)N(c3cccc(Cl)c3Cl)C2)nc2ccccc21 (stereo unspecified)
2. COc1cccc(N2CC(c3nc4ccccc4n3C)CC2=O)c1C (stereo unspecified)
3. Cc1c(N2CC(c3nc4ccccc4n3C)CC2=O)cccc1[N+](=O)[O-] (stereo unspecified)
4. Cc1c(Br)cccc1N1CC(c2nc3cc(F)c(F)cc3n2C)CC1=O (stereo unspecified)

Response given:
> 32 µg/mL
> 32 µg/mL
> 32 µg/mL
> 32 µg/mL

Form field MIC for item CC(=O)c1ccc(N2CC(c3nc4ccccc4n3C)CC2=O)cc1 (stereo unspecified) on Candida albicans: > 32 µg/mL

###

experiment: Cmax in female Sprague-Dawley rat at 20 mg/kg, po measured upto 24 hrs by LC-MS analysis; assay type: ADME, organism-based; conditions: in vivo
assay-endpoint: Cmax (µg/mL)
Give bare numbers, in µg/mL.

Would you mind listing Cmax for each of the following compounds?
1. Cc1c(Br)cccc1N1CC(c2nc3ccccc3n2C)CC1=O (stereo not drawn)
2. COc1c(Br)cccc1N1CC(c2nc3ccccc3n2C)CC1=O (stereo not drawn)
3. Cc1c(CN(C)C(=O)/C=C/c2cnc3c(c2)CCC(=O)N3)oc2ccccc12 [AFN-1252]

Response given:
1.52
1.27
0.711

###

system: Staphylococcus aureus; assay: Antimicrobial activity against […] Staphylococcus aureus ATCC43300 measured after 24 hrs by CLSI protocol based microdilution method; assay type: functional
Could you please report measured MIC for the items listed next?

In the examples that follow, each entry is paired with its recorded MIC.
{"molecule": "Cc1c(N)cccc1N1CC(c2nc3ccccc3n2C)CC1=O (stereo not drawn)", "MIC": "> 32 µg/mL"}
{"molecule": "Cn1c(C2CC(=O)N(c3ccc(Br)c(Br)c3)C2)nc2ccccc21 (stereo not drawn)", "MIC": "> 32 µg/mL"}
{"molecule": "COc1cccc(OC)c1C(=O)N[C@@H]1C(=O)N2[C@@H]1SC(C)(C)[C@@H]2C(=O)O", "MIC": "> 32 µg/mL"}

Would you mind listing MIC for each of the following molecules?
1. Cc1cccc(C(=O)NCCNC(=O)CCc2nc3ccccc3n2C)c1C
2. CC(=O)c1ccc(N2CC(c3nc4ccccc4n3C)CC2=O)cc1 (stereo not drawn)

Response given:
1: > 32 µg/mL; 2: > 32 µg/mL

###

target: Enoyl-[acyl-carrier-protein] reductase [NADPH] FabI (Staphylococcus aureus) (UniProt Q6GI75); assay: Inhibition of N-terminal his 6 tagged Staphylococcus aureus Fabi (1 to […] residues) expressed in Escherichia coli BL21 at 10 uM incubated for 30 mins in presence of NADPH by fluorescence based microplate reader analysis relative to control
Sequence (Q6GI75 whole entry): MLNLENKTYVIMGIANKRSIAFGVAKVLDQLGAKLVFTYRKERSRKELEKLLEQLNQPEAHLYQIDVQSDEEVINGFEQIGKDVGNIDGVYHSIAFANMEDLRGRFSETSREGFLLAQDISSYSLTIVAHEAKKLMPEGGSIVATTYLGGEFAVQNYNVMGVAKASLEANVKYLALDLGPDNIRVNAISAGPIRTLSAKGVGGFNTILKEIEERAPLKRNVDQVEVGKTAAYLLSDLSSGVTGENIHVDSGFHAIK
Mark no for inhibition values under 20%, and yes for everything at or above.

Record excerpt, results attached:
{"molecule": "Cn1c(C2CC(=O)N(c3cccc(Br)c3OCC(F)(F)F)C2)nc2ccccc21 (stereo unspecified)", "class-name": "no"}
{"molecule": "COc1cccc(N2CC(c3nc4ccccc4n3C)CC2=O)c1OC (stereo unspecified)", "class-name": "yes"}
{"molecule": "O=c1sn(-c2cccc3ccccc23)c(=O)n1Cc1ccccc1", "class-name": "yes"}
{"molecule": "CC(=O)c1ccc(N2CC(c3nc4ccccc4n3C)CC2=O)cc1Cl (stereo unspecified)", "class-name": "no"}
{"molecule": "Cc1cccc(N2CC(c3nc4ccccc4n3C)CC2=O)c1Cl (stereo unspecified)", "class-name": "yes"}

API: the following record is the query input.
Challenge: Identify whether the reported inhibition of the following molecule is 20% or greater: Cn1c(CCC(=O)NCc2ccccc2)nc2ccccc21
Response given: no
